- System: RARa homodimer (NR concentration 270 nM)
- run-description: PBM binding z-score (relative to random genomic background probes); higher = stronger binding; sequences stand for … in GC…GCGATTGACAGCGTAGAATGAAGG

{"sequence-text": "ATCGAAAGGTCGAAGGAGAGTATACCCACCCGAA", "PBM binding z-score": 0.728}
{"sequence-text": "ATATGTAGGTCATCGGGTCATTCAGTTTGCGCAT", "PBM binding z-score": 2.05}
{"sequence-text": "CAAACCAGGTCACGAAAGGTCAAAGTCGAATGAC", "PBM binding z-score": 4.58}
{"sequence-text": "CGAACTAGGTCAAAGGACAGTAAAAGGCGACGTA", "PBM binding z-score": 0.769}
{"sequence-text": "CGAACTAGGTCACCAGGACAATGAAGAGGTTGGA", "PBM binding z-score": 0.0185}
{"sequence-text": "GATACAGGGTGAAGGCCAGAGTACGCGTATTGAT", "PBM binding z-score": -0.36}
{"sequence-text": "CCTACTGGGCCATTAAGAGGTCATTGATCATATG", "PBM binding z-score": 0.836}
{"sequence-text": "CTATGCAGGTTAAGGGGGTCATTCAGTTTGAAAG", "PBM binding z-score": 1.66}
{"sequence-text": "ATATGTAGGTTAGGGTCATACAGAAAGTAGGGAA", "PBM binding z-score": 1.3}
{"sequence-text": "CGTCCAAGGTCAAAGGTCAGGGAAGAGATGACGG", "PBM binding z-score": 2.57}
{"sequence-text": "CCTAGTAGGTTATGGGGCATTCAGGCAACGGTGA", "PBM binding z-score": 0.456}
{"sequence-text": "GGAACTAGGGCAAAGTTGATAGCATCTGTCGACG", "PBM binding z-score": -0.192}
{"sequence-text": "CAAACTAGGTCAAAGGTCAAAGTAGAGCCAACCA", "PBM binding z-score": 2.42}
{"sequence-text": "CCCAGTAGGTTACGAGGGGGCATTCAGTGCGAAT", "PBM binding z-score": 0.297}
{"sequence-text": "TCTAGTTGGTCAAAGGCCACACACTCGAAATGCG", "PBM binding z-score": 0.063}
{"sequence-text": "GGTACGAGGGCAAAGTTGATAGCATCTGTCGACG", "PBM binding z-score": -0.085}
{"sequence-text": "CTATGTAGGTTAAGGGGGCCATTCAGTTTGAAAG", "PBM binding z-score": 0.379}
{"sequence-text": "CGAACTAGGACACCAGGACAGTGAAGAGGTTGGA", "PBM binding z-score": 0.279}
{"sequence-text": "CCTACTGGGCCATTCAGAGGACATTGATCATATG", "PBM binding z-score": -0.467}
{"sequence-text": "CGTCCAAGGTCATACGAGGTCAGTGAAGACAGAT", "PBM binding z-score": 2.69}
{"sequence-text": "TTACCAAGGTGACCTGAGGTCGTTGATCCAACTC", "PBM binding z-score": -0.101}
{"sequence-text": "ATATCTAGGTAAAAGTTCAGTGAATCCCGAGGAT", "PBM binding z-score": 1.5}
{"sequence-text": "TCGAGTAGGTTACGGGGGCATTCAAGGATGAAGA", "PBM binding z-score": 0.0228}
{"sequence-text": "TCGAGTAGGTTACGGGGGCATTCCGGGATGAAGA", "PBM binding z-score": 0.0892}
{"sequence-text": "CCTACTGGGCCAATAAGGTCATTGATGCCGATAA", "PBM binding z-score": 0.431}
{"sequence-text": "CCTAGTTGGCCAAGGTCACACACGCTATAGGTAC", "PBM binding z-score": 1.5}
